Test: Plasmodium falciparum growth inhibition, primary screen, strain 3D7, DAPI fluorescence, 100 nL (AID 1184);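 also: parasites grown inside human red blood cells in medium with human serum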
Details: P. falciparum 3D7 growth, 3 d, higher = more signal
Entries are grouped by z-score into these classes: lo = under -1, med = from -1 up to -0.1, hi = -0.1 and over

Solved entries (count: 4):
[[record]]
compound = "C=C[C@H](C)[C@@H](OC(=O)Nc1ccc(OC)cc1)c1ccc(O)c2ccccc12"
answer_label = "hi"

[[record]]
compound = "CCOC(=O)C[C@H]1[C@H](OC(=O)c2ccc(C(=O)c3ccccc3)cc2)[C@@H](NC(=O)c2ccc3ccccc3c2)c2cc(OCCCO)ccc2N1C(=O)Cc1ccc(OC)cc1"
answer_label = "lo"

[[record]]
compound = "C=CC1(C(=O)OC)CC=C(C(=O)OC)CC1 (stereo not given)"
answer_label = "hi"

[[record]]
compound = "COc1ccccc1CN1C(=O)c2ccccc2[C@@]2(Cc3ccccc3N(CC(C)C)C2=O)[C@@H]1c1ccc(CO)cc1"
answer_label = "med"


Returns: class label. Input: [N-]=[N+]=NCc1ccccc1[C@@H]1OC(c2ccc(OCCCO)cc2)=N[C@]1(Cc1ccccc1)C(=O)NCC(O)CO (stereo not given in full) lo

Returns: class label. Input: O=C1O[C@@H](c2ccccc2)[C@@H](c2ccccc2)N2[C@@H](c3ccccc3OCCO)[C@]3(C(=O)Nc4ccc(C#CC5=CCCCC5)cc43)[C@@H](C(=O)N3CCCCCCC3)[C@H]12 lo

The entry to classify is C=C[C@H](CO[Si](CC)(CC)CC)N(Cc1ccc(OC(C)=O)c(OC)c1)S(=O)(=O)c1ccc(Br)cc1 ; which class holds it? hi

Hi, small favor: classify CN1C(=O)C2C=CC(C(O)C3CC=CCC3)N(N(c3ccccc3)c3ccccc3)C2C1=O (stereo not given) by its z-score when you get a moment. med

For O=C1N[C@@H](Cc2ccccc2)C(=O)N2[C@@H]1C[C@@H](C(=O)O)[C@H]2c1cccc(OCCO)c1 , which z-score bin applies? hi

State the band of CC(C)C(=C=CC[C@@H](O)c1ccc(OCCO)cc1)C[C@@H](O)c1ccccn1 med

Which category does the recorded z-score put COc1ccc([Si](C)(C)[C@H]2[C@H](CC(=O)N3Cc4ccccc4C[C@H]3CO)O[C@@]3(C(=O)N(Cc4cccc(N5CCC5=O)c4)c4ccccc43)[C@@H]2C)cc1 in? lo

----------
Target: Torsin-1A-interacting protein 2 (Homo sapiens) (UniProt Q8NFQ8)
Sequence (Q8NFQ8 whole entry, looked up): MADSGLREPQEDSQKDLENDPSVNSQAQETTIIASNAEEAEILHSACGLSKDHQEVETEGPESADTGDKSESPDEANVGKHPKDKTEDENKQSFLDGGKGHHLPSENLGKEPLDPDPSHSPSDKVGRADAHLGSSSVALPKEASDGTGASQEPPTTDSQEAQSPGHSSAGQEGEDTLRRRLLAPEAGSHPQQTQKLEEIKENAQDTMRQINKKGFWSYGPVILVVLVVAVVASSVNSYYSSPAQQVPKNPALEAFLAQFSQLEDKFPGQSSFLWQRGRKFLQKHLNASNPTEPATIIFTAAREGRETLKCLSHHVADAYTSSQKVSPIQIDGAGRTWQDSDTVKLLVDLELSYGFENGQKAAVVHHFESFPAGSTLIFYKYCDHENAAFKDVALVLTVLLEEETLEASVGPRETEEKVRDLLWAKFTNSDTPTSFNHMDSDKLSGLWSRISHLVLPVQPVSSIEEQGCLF
Experiment: LULL1 binders on small-molecule microarray, primary screen, cell lysate, human LULL1 lysate, 635/667 nm fluorescence (AID 1092);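 also: probe is lysate of COS7 cells overexpressing human LULL1; score merges per-feature 667 nm fluorescence with signal-to-noise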
Details: hLULL1 lysate binding, 635 nm fluorescence, higher = more signal
observed-property: composite z-score
# print the numeric value only

Use the examples below as a reference point.
[[record]]
compound = "NC(=O)N1C(=O)C2C(C1=O)C1C=C(c3ccc(CO)cc3)C2C(c2cccs2)N1Cc1cccc(OC(F)(F)F)c1 (stereo not drawn)"
assay_value = 1.01

[[record]]
compound = "COCCOC(=O)N1C(=O)[C@@]2(c3ccccc31)[C@H](C(=O)N1CCc3cc(OC)c(OC)cc3C1)[C@H]1C(=O)O[C@H](c3ccccc3)[C@H](c3ccccc3)N1[C@@H]2c1ccc(OCCO)cc1"
assay_value = 2.27


In the following, a different compound is considered.
Find the measured composite z-score: item C=CCC(OC(C)=O)[C@@H]1[C@@H](N(Cc2ccc(-c3cccc(C(F)(F)F)c3)o2)C(=O)c2ccc(C)cc2)c2cc(OCCCO)ccc2N1C(=O)Cc1ccc2ccccc2c1 (stereo partly drawn) , target or system Torsin-1A-interacting protein 2 (Homo sapiens) (UniProt Q8NFQ8). -0.0958

----------
Target: Fibroblast growth factor 10 (Homo sapiens)
Assay: FGF10 binders on small-molecule microarrays, primary screen, biochemical, small-molecule microarray, 635 nm fluorescence (AID 1102)
Details: FGF10 binding, fluorescence 635 nm, higher = more signal
So basically: composite z-score at 0.3 or higher? That is TRUE. Lower than 0.3? That is FALSE.

[[record]]
molecule = "C=CCC(OC(C)=O)[C@@H]1[C@@H](N(Cc2cc3ccccc3o2)C(=O)c2cccc3ccccc23)c2cc(OCCCO)ccc2N1C(=O)c1ccc(-c2ccccc2)cc1 (stereo partly drawn)"
answer_label = "FALSE"


Check the entry CN(C)C(=O)[C@@]1(CCS(=O)(=O)c2ccccc2)COC(c2ccc(OCCCO)cc2)=N1 : does composite z-score equal or exceed 0.3? TRUE

Decide: is the reported value of composite z-score for CCCC=C(CCC)[C@@H](NC(=O)c1cccs1)c1ccc(C(F)(F)F)cc1 equal to or greater than 0.3? TRUE

Confirm if composite z-score reported for the molecule NCCCCCCNC(=O)[C@@H]1C[C@@H]2C(=O)NCC(=O)N2[C@@H]1c1ccc(O)cc1 is 0.3 or above. TRUE

# bool: composite z-score of CCCCN1CC=CC23O[C@@H]4C=CCCOC(=O)C4[C@H]2C(=O)N(CCCCCCO)[C@@H]3C1=O (stereo partly drawn) >= 0.3 FALSE

Is reported composite z-score greater than or equal to 0.3 here: C=C(CCCC)/C(=C/C[C@@H](OC(C)=O)c1ccc(OCCO)cc1)c1cnc2ccccc2c1 TRUE

Reported composite z-score at or above 0.3? C=CC1(C(=O)OC)CC=C(C(=O)OC)CC1 (stereo not drawn) TRUE

Quick check: does O=C1C2C=CC(C(O)c3cc(C(F)(F)F)cc(C(F)(F)F)c3)N(n3cnnc3)C2C(=O)N1Cc1ccccc1 (stereo not drawn) have composite z-score greater than or equal to 0.3? FALSE

----------
Test system: Sonic hedgehog protein (Shh)
Assay: small-molecule binders of Shh protein, primary screen, biochemical, small-molecule microarray, 635/667 nm fluorescence (AID 1151);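 also: Shh protein binding to compounds spotted on small-molecule microarray slides; score combines spot fluorescence intensity with signal-to-noise across triplicate slides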
Details: small-molecule microarray binding, 635 nm fluorescence; higher = more signal
# composite z-score annotations
In your answer, state the number alone without any accompanying words.

Past entries and their recorded results:
[[record]]
compound = "CN1C(=O)C2C=CC(C(O)c3ccco3)N(Nc3ccccc3)C2C1=O (configuration not stated)"
assay_value = 0.59

[[record]]
compound = "CCOC(=O)C[C@H]1[C@H](OC(=O)c2ccc(C(=O)c3ccccc3)cc2)[C@@H](NC(=O)c2ccccc2)c2cc(OCCCO)ccc2N1C(=O)Cc1ccc(OC)cc1"
assay_value = -0.0887

[[record]]
compound = "O=C(OCc1ccccc1)C1=CCC2c3[nH]c4ccccc4c3C(=O)C1N2S(=O)(=O)c1ccccc1[N+](=O)[O-] (configuration not stated)"
assay_value = 0.488

[[record]]
compound = "COC(=O)[C@@]1(Cc2ccccc2)N=C(c2ccc(OCCCO)cc2)O[C@H]1c1ccccc1"
assay_value = -0.0883

[[record]]
compound = "COCCOC(=O)N1C(=O)[C@@]2(c3cc(C#Cc4ccc(OC)cc4)ccc31)[C@H](c1ccc(OCCO)cc1)N1[C@H](c3ccccc3)[C@H](c3ccccc3)OC(=O)[C@H]1[C@@H]2C(=O)N1CCN(c2ncccn2)CC1"
assay_value = 1.69


Could you tell me which composite z-score is on file for C=CCNC(=O)[C@@H]1[C@H]2C(=O)O[C@H](c3ccccc3)[C@H](c3ccccc3)N2[C@H](c2ccc(O)cc2)[C@@]12C(=O)Nc1ccc(C#CCNC(N)=O)cc12 ? 0.316

Any idea what composite z-score was measured for C=C(CCCC)/C(=C/C[C@@H](OC(=O)c1ccncc1)c1ccc(OCCO)cc1)c1cc(C(=O)OC)ccc1OC ? 1.41

Reported composite z-score, compound CCOC(=O)C[C@H]1[C@H](OC(=O)c2ccccc2-c2ccccc2)[C@@H](NC(=O)CC(C)C)c2cc(OCCCO)ccc2N1C(=O)Cc1ccc(OC)cc1 : ____ 0.222

Can you look up the measured composite z-score of CCOC(=O)[C@H]1C/C=C/C[C@H](C(=O)OCC)C(=O)O[C@H]2[C@@H](OC)O[C@H](CO)[C@@H](OC(=O)c3c(OC)cccc3OC)[C@@H]2OC1=O for me? 1.44

Need composite z-score, item COC(=O)[C@@]1(Cc2ccc(OC)cc2)[C@H]2c3cc(C(=O)N(C)C)n(Cc4ccc(S(C)(=O)=O)cc4)c3C[C@H]2CN1C(=O)c1ccccc1 -0.599

I would be grateful if you could share the reported composite z-score for CCCC[C@@H]1C[C@H]1[C@@H](NC(=O)c1cccs1)c1ccc(-c2ccccc2)cc1 . 1.73

----------
Biological target: Torsin-1A-interacting protein 2 (Homo sapiens) (UniProt Q8NFQ8)
Test: LULL1 binders on small-molecule microarray, primary screen, cell lysate, human LULL1 lysate, 635/667 nm fluorescence (AID 1092);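 also: probe is lysate of COS7 cells overexpressing human LULL1; score merges per-feature 667 nm fluorescence with signal-to-noise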
Conditions: hLULL1 lysate binding, 635 nm fluorescence, higher = more signal
# composite z-score annotations
No unit in the answer, please; the number alone is enough.

As a guide, the following entries are already answered.
[[record]]
smiles_code = "NC(=O)NCC#Cc1ccc2c(c1)[C@]1(C(=O)N2)[C@H](c2ccccc2OCCO)N2[C@H](c3ccccc3)[C@H](c3ccccc3)OC(=O)[C@H]2[C@@H]1C(=O)Nc1nc2ccccc2s1"
observed_property = "composite z-score"
assay_value = 2.49

[[record]]
smiles_code = "O=C(N1CCCCC1)[C@]1(Cc2ccccc2)N=C(c2ccc(OCCCO)cc2)O[C@@H]1c1ccccc1"
observed_property = "composite z-score"
assay_value = 2.84

[[record]]
smiles_code = "COc1ccc([Si](C)(C)[C@@H]2[C@@H](CC(=O)N3CCC[C@H]3CO)O[C@]3(C(=O)N(c4ccccc4)c4ccccc43)[C@H]2C)cc1"
observed_property = "composite z-score"
assay_value = 2.37

[[record]]
smiles_code = "Cc1ccc(S[C@]2(C(=O)O)CC(=O)N(C(C)C)[C@@H]2c2ccc(CO)cc2I)cc1"
observed_property = "composite z-score"
assay_value = 2.21

[[record]]
smiles_code = "COCCOC(=O)N1C(=O)[C@@]2(c3cc(C#CC4(O)CCCCCC4)ccc31)[C@H](c1ccc(OCCO)cc1)N1[C@H](c3ccccc3)[C@H](c3ccccc3)OC(=O)[C@H]1[C@@H]2C(=O)N1CCN(c2ncccn2)CC1"
observed_property = "composite z-score"
assay_value = 2.69


For the next question, use this molecule.
Give recorded composite z-score with Torsin-1A-interacting protein 2 (Homo sapiens) (UniProt Q8NFQ8) for the following molecule: COc1ccc(CCNC(=O)[C@@]2(Sc3ccc(C)cc3)CC(=O)N(C3Cc4ccccc4C3)[C@@H]2c2ccc(CO)cc2I)cc1 1.99

The measurements presented in this section are drawn from PubChem BioAssay.
